- experimentalTarget: Alpha-2C adrenergic receptor (Homo sapiens)
- protocolNotes: modulators of alpha2C/GIRK thallium flux, primary screen, cell-based, HEK293 alpha2C/GIRK1/2 (AID 624);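 note: slope of fluorescence ratio to pre-addition baseline per second over 15 to 24 s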
- protocolConditions: thallium flux BTC fluorescence, at 10 µM, actives lie on both sides
Calls of active or inactive are those of the source.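 Rule for the calls: active = fluorescence slope after compound addition differing from the mean of all screened samples at 99.7% confidence, in either direction; inactive = the rest.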
Your response should consist of one outcome taken from TRUE = active, FALSE = inactive

Examples with answers:
Q: So what was the verdict on O=C(c1cncc(Br)c1)N1CCCc2ccccc21 in this test?
Ans: FALSE

Q: So what was the verdict on CN(C)CCCN1c2ccccc2CCc2ccc(Cl)cc21 in this test?
Ans: FALSE

Q: So what was the verdict on Cc1ccc(-c2ccc(/C=N/c3ncn[nH]3)o2)cc1Cl in this test?
Ans: FALSE

Q: So what was the verdict on O=C1CSC(=Nc2ccc(O)cc2)N1c1ccc(O)cc1 in this test?
Ans: FALSE

---
Q: So what was the verdict on CSc1nc2sc3c(c2c(=O)[nH]1)CCC(C)C3 (stereo unspecified) in this test?
Ans: TRUE

Q: So what was the verdict on CCOC(=O)c1[nH]c2ccc(OC)cc2c1NC(=O)CCN1CCC(C)CC1 in this test?
Ans: FALSE

---

- protocolNotes: inhibitors of TNFa-induced NFkB p65 translocation, primary screen, imaging, HUVEC, MLSMR starter and 10KST1 sets (AID 438);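 note: compound added about 3h40 before a 20 min TNFalpha stimulation; signal is the nuclear over cytoplasmic p65 intensity ratio per well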
- protocolConditions: HUVEC TNFa-induced p65 nuclear translocation; at 2 µM, hits give high values, 0% TNFa-plus-vehicle, 100% no-TNFa wells
The reader will find reported inhibition values listed item by item below.
// return numeric value only (unit: %, not printed)

Worked examples follow.
Q: Consider the compound CCCOc1ccc(/C(O)=C2/C(=O)C(=O)N(CCCn3ccnc3)C2c2cccs2)cc1 (configuration not stated) . State its measured inhibition.
Ans: -14.3

Q: Consider the compound C[C@@H]1C[C@H]2[C@@H]3CCC4=CC(=O)C=C[C@]4(C)[C@@]3(F)[C@@H](O)C[C@]2(C)[C@@]1(O)C(=O)COP(=O)(O)O . State its measured inhibition.
Ans: -10.3

Q: Consider the compound CC1(C)NC(=O)N(CC(O)COc2ccccc2C(=O)Nc2ccccc2)C1=O (configuration not stated) . State its measured inhibition.
Ans: -22.7

Q: Consider the compound CC1CN(C2CCN(S(=O)(=O)Cc3ccccc3)CC2)CC(C)O1 (configuration not stated) . State its measured inhibition.
Ans: -15.2

Q: Consider the compound CC(C)NC(=O)N1CCOCCOCCN(C(=O)NC(C)C)CCOCCOCC1 . State its measured inhibition.
Ans: -16.8

Q: Consider the compound COc1cc(NS(=O)(=O)c2ccc(N)cc2)nc(OC)n1 . State its measured inhibition.
Ans: 1.1

Let's switch to this compound now.
Q: Consider the compound CC1(C)SC2[C@H](NC(=O)C(NC(=O)N3CCNC3=O)c3ccccc3)C(=O)N2C1C(=O)O (some centres not stated) . State its measured inhibition.
Ans: -9.5

---

- protocolNotes: inhibitors of TNFa-induced NFkB p65 translocation, primary screen, imaging, HUVEC, MLSMR starter and 10KST1 sets (AID 438);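 note: compound added about 3h40 before a 20 min TNFalpha stimulation; signal is the nuclear over cytoplasmic p65 intensity ratio per well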
- protocolConditions: HUVEC TNFa-induced p65 nuclear translocation; at 2 µM, hits give high values, 0% TNFa-plus-vehicle, 100% no-TNFa wells
endpointLabel: inhibition (%)
// return numeric value only (unit: %, not printed)

Worked examples follow.
Q: Consider the compound Cc1cc(C)n(Cc2ccc(C(=O)NCCC3=CCCCC3)o2)n1 . State its measured inhibition.
Ans: -8

Q: Consider the compound CCCCC1CC1C(=O)Nc1ccc(OC)c(OC)c1 (stereo not drawn) . State its measured inhibition.
Ans: -0.9

---
Q: Consider the compound CC(Cc1ccc(O)c(O)c1)C(C)Cc1ccc(O)c(O)c1 (stereo not drawn) . State its measured inhibition.
Ans: 12.1

---

- experimentalTarget: Alpha-2C adrenergic receptor (Homo sapiens) (UniProt P18825)
- Sequence (P18825 whole entry, looked up): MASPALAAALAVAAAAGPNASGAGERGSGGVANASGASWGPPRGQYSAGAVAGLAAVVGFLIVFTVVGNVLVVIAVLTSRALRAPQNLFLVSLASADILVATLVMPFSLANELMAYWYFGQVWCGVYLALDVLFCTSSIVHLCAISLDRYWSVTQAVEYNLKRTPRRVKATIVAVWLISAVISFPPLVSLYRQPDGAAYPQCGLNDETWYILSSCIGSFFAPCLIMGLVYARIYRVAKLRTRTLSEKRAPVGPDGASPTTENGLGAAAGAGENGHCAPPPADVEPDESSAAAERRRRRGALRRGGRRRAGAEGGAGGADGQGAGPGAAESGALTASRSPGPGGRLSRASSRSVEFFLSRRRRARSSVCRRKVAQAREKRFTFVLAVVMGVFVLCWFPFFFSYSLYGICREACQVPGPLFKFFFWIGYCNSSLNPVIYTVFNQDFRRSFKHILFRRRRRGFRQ
- protocolNotes: modulators of alpha2C/GIRK thallium flux, primary screen, cell-based, HEK293 alpha2C/GIRK1/2 (AID 624);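 note: slope of fluorescence ratio to pre-addition baseline per second over 15 to 24 s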
- protocolConditions: thallium flux BTC fluorescence, at 10 µM, actives lie on both sides
The reader will find reported slope values listed item by item below.
Field format: numeric only.

Q: Consider the molecule CCCCOc1ccc(CC(=O)NO)cc1 . State its measured slope.
Ans: 0.00497

Q: Consider the molecule COc1cccc(/C(O)=C2/C(=O)C(=O)N(CCCN(C)C)C2c2cccc(Cl)c2)c1 (stereo not drawn) . State its measured slope.
Ans: 0.00508

Q: Consider the molecule CC(C(=O)N1CCOCC1)N1C(=O)c2ccccc2C1=O (stereo not drawn) . State its measured slope.
Ans: 0.0049

---

The reader will find reported NADPH fluorescence slope values listed item by item below.
- experimentalTarget: Voltage-gated potassium channel subunit beta-2 (Rattus norvegicus)
- protocolNotes: KvBeta positive modulators, primary screen, biochemical, NADPH fluorescence (AID 623);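 note: fluorescence intensity change per second fitted from 20 to 320 s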
- protocolConditions: Recombinant KvBeta, NADPH fluorescence decrease slope, 10 min; at 10 µM; hits give low values
Field format: numeric only.

Worked examples follow.
Q: Consider the molecule Cc1ccc(S(=O)(=O)NC(=O)NCc2ccc3c(c2)OCO3)cc1 . State its measured NADPH fluorescence slope.
Ans: -0.000226

Q: Consider the molecule Clc1ccc2[nH]c3c(NCCCN4CCOCC4)ncnc3c2c1 . State its measured NADPH fluorescence slope.
Ans: 6.4e-06

Q: Consider the molecule COC(=O)c1c(C)noc1-c1cc(C)on1 . State its measured NADPH fluorescence slope.
Ans: -4e-05

Q: Consider the molecule CC1(C)CC(NC(=O)C23CCC(C)(/C(=N/O)C2)C3(C)C)CC(C)(C)N1 (centres undefined) . State its measured NADPH fluorescence slope.
Ans: -0.000147

Q: Consider the molecule COc1cccc(-c2nc(NCc3ccco3)c3ccccc3n2)c1O . State its measured NADPH fluorescence slope.
Ans: -1.4e-05

---
Q: Consider the molecule Nc1nnc(CSc2ccc(Cl)cc2)s1 . State its measured NADPH fluorescence slope.
Ans: -4.8e-05

Q: Consider the molecule CN1CCN(CCCN2c3ccccc3Sc3ccc(C(F)(F)F)cc32)CC1 . State its measured NADPH fluorescence slope.
Ans: -1.6e-05

Q: Consider the molecule Cc1cc(C)n(Cc2ccc(C(=O)NCCC3=CCCCC3)o2)n1 . State its measured NADPH fluorescence slope.
Ans: -0.000101

Q: Consider the molecule N#CC1=C(SCC(=O)c2ccccc2)NC2=C(C(=O)CCC2)C1c1ccco1 (centres undefined) . State its measured NADPH fluorescence slope.
Ans: -3.2e-05

Q: Consider the molecule COc1ccc2c(c1)[nH]c1c(=O)n(CC3CCCO3)cnc12 (centres undefined) . State its measured NADPH fluorescence slope.
Ans: -4.3e-05

---

The reader will find reported inhibition values listed item by item below.
- experimentalTarget: Dual specificity protein phosphatase 6 (Homo sapiens) (UniProt Q16828)
- Sequence (Q16828 whole entry, looked up): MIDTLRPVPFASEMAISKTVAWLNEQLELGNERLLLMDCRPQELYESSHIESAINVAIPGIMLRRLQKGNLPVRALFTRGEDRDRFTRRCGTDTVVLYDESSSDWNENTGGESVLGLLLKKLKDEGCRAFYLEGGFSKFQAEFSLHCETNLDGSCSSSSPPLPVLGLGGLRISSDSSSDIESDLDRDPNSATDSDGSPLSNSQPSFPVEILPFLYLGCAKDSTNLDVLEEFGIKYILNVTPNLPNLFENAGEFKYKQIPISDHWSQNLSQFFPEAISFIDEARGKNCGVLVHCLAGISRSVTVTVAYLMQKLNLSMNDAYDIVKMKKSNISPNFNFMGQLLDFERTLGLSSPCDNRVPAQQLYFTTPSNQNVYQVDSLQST
- protocolNotes: DUSP6 inhibitors restoring Erk phosphorylation by chemical complementation, primary imaging in DUSP6-transfected HeLa (AID 609);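 note: phospho-Erk level distribution per well compared with pooled transfected vehicle control wells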
- protocolConditions: HeLa MKP-3 transfected, phospho-Erk imaging KS statistic; at 10 µM; hits give high values; cells stimulated with TPA for 15 min
// return numeric value only (unit: %, not printed)

Worked examples follow.
Q: Consider the compound COc1ccc(OC)c(C2=Nn3c(nnc3C3CCCCC3)SC2)c1 . State its measured inhibition.
Ans: 2.92

Q: Consider the compound CC(C)Sc1nc(N2CCCC2)c2c(c1C#N)CC(C)(C)OC2 . State its measured inhibition.
Ans: 24.4

Q: Consider the compound COc1cccc(-c2nnc3sc(-c4ccc(C)cc4)nn23)c1 . State its measured inhibition.
Ans: -4.27

Q: Consider the compound CCC(C)n1ncn(-c2ccc(N3CCN(c4ccc(OCC5COC(Cn6cncn6)(c6ccc(Cl)cc6Cl)O5)cc4)CC3)cc2)c1=O (stereo not given) . State its measured inhibition.
Ans: 1.38

Let's switch to this compound now.
Q: Consider the compound CN1CC=C2C(C#N)=C(N)C(C#N)(C#N)[C@H](c3cccc(Cl)c3)C2C1 (stereo not given in full) . State its measured inhibition.
Ans: 71

---

- protocolNotes: inhibitors of E-selectin induction by TNFa, primary screen, imaging, HUVEC, immunofluorescence, MLSMR starter and 10KST1 sets (AID 487);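 note: signal is fraction of cell area covered by stained E-selectin grains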
- protocolConditions: HUVEC TNFalpha-induced E-selectin immunofluorescence imaging, at 2 µM; hits give high values
Activity calls are given as the source filed them.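 How the source made its calls: active means visually confirmed hit in the image check and inhibition above 20%; inconclusive means visually confirmed hit but inhibition not above 20%; inactive means no visual hit in the image check.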
endpointLabel: inhibition

Worked examples follow.
Q: Consider the compound COc1ccc(OC)c2c1CCC2=O . State its measured inhibition.
Ans: 3.9% (inactive)

Q: Consider the compound CCOC(=O)c1c(SC)nc(SC)c2c1CCC2 . State its measured inhibition.
Ans: -63.6% (inactive)

Q: Consider the compound C[C@@H]1C[C@H]2[C@@H]3CCC4=CC(=O)C=C[C@]4(C)[C@@]3(F)[C@@H](O)C[C@]2(C)[C@@]1(O)C(=O)COP(=O)(O)O . State its measured inhibition.
Ans: -15.3% (inactive)

Q: Consider the compound Cc1nn(C)cc1C1C2=C(CC(C)(C)CC2=O)OC2=C1C(=O)CC(C)(C)C2 . State its measured inhibition.
Ans: -77.9% (inactive)

Q: Consider the compound COc1cccc(-c2nc(N3CCC(C)CC3)c3ccccc3n2)c1O . State its measured inhibition.
Ans: 48.3% (inactive)

---
Q: Consider the compound CCN(CC)c1ncc(C)c(=O)[nH]1 . State its measured inhibition.
Ans: -44.9% (inactive)

Q: Consider the compound COc1cc(/C=N/n2c(C)nnc2C)cc(OC)c1OC . State its measured inhibition.
Ans: -27.1% (inactive)
